Target: Lucilia cuprina chitinase
Test: Chitinase inhibitory activity (IC50) against Lucilia cuprina chitinase
Type: biochemical
Conditions: 20° C.
measure: IC50 (nM)
Enter your answer as a number in nM; do not include the unit.

Request: # get_value(readout= IC50, system= Lucilia cuprina chitinase) for "Cc1cc2nc3c(=O)[nH]c(=O)nc-3n(C[C@H](O)[C@H](O)[C@H](O)CO)c2cc1C"
Response: 380

* * *

Target: Lucilia cuprina chitinase
Assay: Chitinase inhibitory activity (IC50) against Lucilia cuprina chitinase
Assay type: biochemical
Settings: 37° C.
measure: IC50 (nM)
Enter your answer as a number in nM; do not include the unit.

Request: # get_value(readout= IC50, system= Lucilia cuprina chitinase) for "Cc1cc2nc3c(=O)[nH]c(=O)nc-3n(C[C@H](O)[C@H](O)[C@H](O)CO)c2cc1C"
Response: 2100
